Assay: Stability of the analytes in rat plasma samples (freeze-thaw, short-term, long-term, autosampler)
Type: in vitro ADME
Settings: concentration 100 (µg/mL), three freeze-thaw cycles, n = 3
Experimental: Stability was also assessed using the low, medium and high concentrations of analytes. Freeze-thaw stability was assessed over three freeze-thaw cycles. Short-term stability was determined by placing the samples at room temperature for 6 h. Long-term stability was evaluated by analyzing samples kept at −20°C for 14 days. Autosampler stability was determined by maintaining the samples at the autosampler temperature (8°C) for 12 h. […]
Label satisfied when Stability (%) Freeze-thaw stability < 6%; otherwise not satisfied.

Here's what some known entries look like.
molecule	assigned.label
CCC/C=C1\OC(=O)C2=C1CCC=C2 [Ligustilide, ligustilide]	not satisfied
C[C@@]12C[C@@]3(O)O[C@@H](O1)[C@]1(COC(=O)c4ccccc4)[C@H]3C[C@@]12O[C@@H]1O[C@H](CO)[C@@H](O)[C@H](O)[C@H]1O [Paeoniflorin, paeoniflorin]	satisfied
COc1ccc(-c2coc3cc(O)ccc3c2=O)cc1 [Formononetin, formononetin]	satisfied

[in] Could you please tell me whether Stability (%) Freeze-thaw stability recorded for CC(=O)O[C@H]1[C@H](O[C@H]2CC[C@]34C[C@]35CC[C@]3(C)[C@@H]([C@@]6(C)CC[C@@H](C(C)(C)O)O6)[C@@H](O)C[C@@]3(C)[C@@H]5C[C@H](O[C@@H]3O[C@H](CO)[C@@H](O)[C@H](O)[C@H]3O)[C@H]4C2(C)C)OC[C@@H](O)[C@@H]1O [Astragaloside II, astragaloside II] is less than 6%?
[out] satisfied

[in] Could you please tell me whether Stability (%) Freeze-thaw stability recorded for COc1ccc(-c2coc3cc(O[C@@H]4O[C@H](CO)[C@@H](O)[C@H](O)[C@H]4O)ccc3c2=O)cc1O [Calycosin-7-O-β-D-glucoside, calycosin-7-O-β-D-glucoside] is less than 6%?
[out] not satisfied

----------
# reported Stability (%) Short-term stability; entries follow
test: Stability of the analytes in rat plasma samples (freeze-thaw, short-term, long-term, autosampler); format: in vitro ADME; conditions: concentration 10 (µg/mL), room temperature 6 h, n = 3
# value in %; strip the unit string

In the examples that follow, each entry is paired with its recorded Stability (%) Short-term stability.
compound	Stability (%) Short-term stability
CC(=O)OC1C(O)COC(OC2CCC34CC35CCC3(C)C(C6(C)CCC(C(C)(C)O)O6)C(O)CC3(C)C5CC(OC3OC(CO)C(O)C(O)C3O)C4C2(C)C)C1OC(C)=O (stereo not shown) [Astragaloside I, astragaloside I]	−4.1
COc1ccc(-c2coc3cc(O[C@@H]4O[C@H](CO)[C@@H](O)[C@H](O)[C@H]4O)ccc3c2=O)cc1O [Calycosin-7-O-β-D-glucoside, calycosin-7-O-β-D-glucoside]	7.3
COc1ccc(-c2coc3cc(O)ccc3c2=O)cc1	−3.4

[in] What Stability (%) Short-term stability value was documented for this compound, `COc1ccc(-c2coc3cc(O)ccc3c2=O)cc1O` ?
[out] 1.4

----------
assay: Stability of the analytes in rat plasma samples (freeze-thaw, short-term, long-term, autosampler); assay type: in vitro ADME; conditions: concentration 10 (µg/mL), room temperature 6 h, n = 3
measurement.type: Stability (%) Short-term stability
# value in %; strip the unit string

In the examples that follow, each entry is paired with its recorded Stability (%) Short-term stability.
compound	test.value
COc1ccc(-c2coc3cc(O[C@@H]4O[C@H](CO)[C@@H](O)[C@H](O)[C@H]4O)ccc3c2=O)cc1	−12
C[C@@]12C[C@@]3(O)O[C@@H](O1)[C@]1(COC(=O)c4ccccc4)[C@H]3C[C@@]12O[C@@H]1O[C@H](CO)[C@@H](O)[C@H](O)[C@H]1O	7.7
CCC/C=C1\OC(=O)C2=C1CCC=C2 [Ligustilide, ligustilide]	11
CC(=O)O[C@H]1[C@H](O[C@H]2CC[C@]34C[C@]35CC[C@]3(C)[C@@H]([C@@]6(C)CC[C@@H](C(C)(C)O)O6)[C@@H](O)C[C@@]3(C)[C@@H]5C[C@H](O[C@@H]3O[C@H](CO)[C@@H](O)[C@H](O)[C@H]3O)[C@H]4C2(C)C)OC[C@@H](O)[C@@H]1O [Astragaloside II, astragaloside II]	−1.3

Lab note: next compound to report on.
[in] What Stability (%) Short-term stability value was documented for this compound, CC(C)(O)[C@@H]1CC[C@](C)([C@H]2[C@@H](O)C[C@@]3(C)[C@@H]4C[C@H](O[C@@H]5O[C@H](CO)[C@@H](O)[C@H](O)[C@H]5O)[C@H]5C(C)(C)[C@@H](O[C@@H]6OC[C@@H](O)[C@H](O)[C@H]6O)CC[C@@]56C[C@@]46CC[C@]23C)O1 [Astragaloside IV, astragaloside IV] ?
[out] 4.7

----------
# reported log10(Cmax); entries follow
experiment: Pharmacokinetics in conscious freely moving rats after oral administration of BYHWT extract (HPLC-MS/MS of plasma); assay type: in vivo, Sprague-Dawley rats; conditions: male, Sprague-Dawley, po; rat plasma, BYHWT extract 10 g/kg p.o., n = 6; read-out: Cmax
Kindly note that the scale is log10 and the underlying Cmax is in ng/mL.

[in] What log10(Cmax) value was documented for this compound, `COc1ccc(-c2coc3cc(O[C@@H]4O[C@H](CO)[C@@H](O)[C@H](O)[C@H]4O)ccc3c2=O)cc1` ?
[out] 1.28

[in] What log10(Cmax) value was documented for this compound, `COc1ccc(-c2coc3cc(O)ccc3c2=O)cc1` ?
[out] 1.99

[in] What log10(Cmax) value was documented for this compound, `C[C@@]12C[C@@]3(O)O[C@@H](O1)[C@]1(COC(=O)c4ccccc4)[C@H]3C[C@@]12O[C@@H]1O[C@H](CO)[C@@H](O)[C@H](O)[C@H]1O` ?
[out] 1.99

----------
assay: Pharmacokinetics in conscious freely moving rats after oral administration of BYHWT extract (HPLC-MS/MS of plasma); format: in vivo, Sprague-Dawley rats; conditions: male, Sprague-Dawley, po; rat plasma, BYHWT extract 10 g/kg p.o., n = 6; read-out: t1/2
# reported half-life; entries follow
# value in min; strip the unit string

In the examples that follow, each entry is paired with its recorded half-life.
compound	units.text	half-life
COc1ccc(-c2coc3cc(O[C@@H]4O[C@H](CO)[C@@H](O)[C@H](O)[C@H]4O)ccc3c2=O)cc1O [Calycosin-7-O-β-D-glucoside, calycosin-7-O-β-D-glucoside]	min	338
COc1ccc(-c2coc3cc(O[C@@H]4O[C@H](CO)[C@@H](O)[C@H](O)[C@H]4O)ccc3c2=O)cc1 [Ononin, ononin]	min	134
COc1ccc(-c2coc3cc(O)ccc3c2=O)cc1O [Calycosin, calycosin]	min	75
CCC/C=C1\OC(=O)C2=C1CCC=C2 [Ligustilide, ligustilide]	min	267
C[C@@]12C[C@@]3(O)O[C@@H](O1)[C@]1(COC(=O)c4ccccc4)[C@H]3C[C@@]12O[C@@H]1O[C@H](CO)[C@@H](O)[C@H](O)[C@H]1O [Paeoniflorin, paeoniflorin]	min	93

[in] What half-life value was documented for this compound, COc1ccc(-c2coc3cc(O)ccc3c2=O)cc1 [Formononetin, formononetin] ?
[out] 175

----------
# reported Stability (%) Short-term stability; entries follow
assay: Stability of the analytes in rat plasma samples (freeze-thaw, short-term, long-term, autosampler); type: in vitro ADME; conditions: concentration 1 (µg/mL), room temperature 6 h, n = 3
# value in %; strip the unit string

In the examples that follow, each entry is paired with its recorded Stability (%) Short-term stability.
compound	measurement.type	test.value
CCC/C=C1\OC(=O)C2=C1CCC=C2 [Ligustilide, ligustilide]	Stability (%) Short-term stability	14
CC(C)(O)[C@@H]1CC[C@](C)([C@H]2[C@@H](O)C[C@@]3(C)[C@@H]4C[C@H](O[C@@H]5O[C@H](CO)[C@@H](O)[C@H](O)[C@H]5O)[C@H]5C(C)(C)[C@@H](O[C@@H]6OC[C@@H](O)[C@H](O)[C@H]6O)CC[C@@]56C[C@@]46CC[C@]23C)O1 [Astragaloside IV, astragaloside IV]	Stability (%) Short-term stability	12
CC(=O)OC1C(O)COC(OC2CCC34CC35CCC3(C)C(C6(C)CCC(C(C)(C)O)O6)C(O)CC3(C)C5CC(OC3OC(CO)C(O)C(O)C3O)C4C2(C)C)C1OC(C)=O (stereo not shown) [Astragaloside I, astragaloside I]	Stability (%) Short-term stability	−3.6

Lab note: next compound to report on.
[in] What Stability (%) Short-term stability value was documented for this compound, COc1ccc(-c2coc3cc(O[C@@H]4O[C@H](CO)[C@@H](O)[C@H](O)[C@H]4O)ccc3c2=O)cc1O [Calycosin-7-O-β-D-glucoside, calycosin-7-O-β-D-glucoside] ?
[out] 2.5

----------
assay: Stability of the analytes in rat plasma samples (freeze-thaw, short-term, long-term, autosampler); type: in vitro ADME; conditions: concentration 1 (µg/mL), −20°C 14 days, n = 3
measurement.type: Stability (%) Long-term stability
# value in %; strip the unit string

In the examples that follow, each entry is paired with its recorded Stability (%) Long-term stability.
compound	Stability (%) Long-term stability
CC(=O)O[C@H]1[C@H](O[C@H]2CC[C@]34C[C@]35CC[C@]3(C)[C@@H]([C@@]6(C)CC[C@@H](C(C)(C)O)O6)[C@@H](O)C[C@@]3(C)[C@@H]5C[C@H](O[C@@H]3O[C@H](CO)[C@@H](O)[C@H](O)[C@H]3O)[C@H]4C2(C)C)OC[C@@H](O)[C@@H]1O [Astragaloside II, astragaloside II]	8.7
COc1ccc(-c2coc3cc(O[C@@H]4O[C@H](CO)[C@@H](O)[C@H](O)[C@H]4O)ccc3c2=O)cc1O [Calycosin-7-O-β-D-glucoside, calycosin-7-O-β-D-glucoside]	6.4
CC(=O)OC1C(O)COC(OC2CCC34CC35CCC3(C)C(C6(C)CCC(C(C)(C)O)O6)C(O)CC3(C)C5CC(OC3OC(CO)C(O)C(O)C3O)C4C2(C)C)C1OC(C)=O (stereo not shown) [Astragaloside I, astragaloside I]	−14

Lab note: next compound to report on.
[in] What Stability (%) Long-term stability value was documented for this compound, CCC/C=C1\OC(=O)C2=C1CCC=C2 [Ligustilide, ligustilide] ?
[out] 6.7
